# Tested on: PPP1R12A (Mypt1) exon 24 flanking region
# assay.text: Surveyor nuclease assay on genomic PCR products of transfected HEK293T cells
# Assay type: cell-based, human
# condition.label: constructs tested individually

molecule: sgRNA9: guide RNA, target … (SEQ ID NO: 13); tested cloned in px601 SaCas9 plasmid (nucleic acid) guide: GAGAAUGCUUAUCAUUUAAGGGUUUUAGUACUCUGGAAACAGAAUCUACUAAAACAAGGCAAAAUGCCGUGUUUAUCUCGUCAACUUGUUGGCGAGAUUUUU
genome editing in vitro (in words): effective genome editing
//
molecule: sgRNA6: guide RNA, target … (SEQ ID NO: 10); tested cloned in px601 SaCas9 plasmid (nucleic acid) guide: GUAUCUGAAAGGUGACCGGCGUUUUAGUACUCUGGAAACAGAAUCUACUAAAACAAGGCAAAAUGCCGUGUUUAUCUCGUCAACUUGUUGGCGAGAUUUUU
genome editing in vitro (in words): effective genome editing
//
molecule: sgRNA12: guide RNA, target … (SEQ ID NO: 16); tested cloned in px601 SaCas9 plasmid (nucleic acid) guide: GAUACAAAGCUAUAAAGUCAGGUUUUAGUACUCUGGAAACAGAAUCUACUAAAACAAGGCAAAAUGCCGUGUUUAUCUCGUCAACUUGUUGGCGAGAUUUUU
genome editing in vitro (in words): effective genome editing
